FYI, the data here is from patent US10314841B2.

Entries annotated with measured IC50
# targetOrTestSystem: IRAK1 (His-TEV-IRAK1 (194-712)) (Homo sapiens, UniProt P51617)
# Construct: His-TEV-IRAK1 (194-712); His (N); TEV cleavage site (N)
# Sequence (P51617 194-712): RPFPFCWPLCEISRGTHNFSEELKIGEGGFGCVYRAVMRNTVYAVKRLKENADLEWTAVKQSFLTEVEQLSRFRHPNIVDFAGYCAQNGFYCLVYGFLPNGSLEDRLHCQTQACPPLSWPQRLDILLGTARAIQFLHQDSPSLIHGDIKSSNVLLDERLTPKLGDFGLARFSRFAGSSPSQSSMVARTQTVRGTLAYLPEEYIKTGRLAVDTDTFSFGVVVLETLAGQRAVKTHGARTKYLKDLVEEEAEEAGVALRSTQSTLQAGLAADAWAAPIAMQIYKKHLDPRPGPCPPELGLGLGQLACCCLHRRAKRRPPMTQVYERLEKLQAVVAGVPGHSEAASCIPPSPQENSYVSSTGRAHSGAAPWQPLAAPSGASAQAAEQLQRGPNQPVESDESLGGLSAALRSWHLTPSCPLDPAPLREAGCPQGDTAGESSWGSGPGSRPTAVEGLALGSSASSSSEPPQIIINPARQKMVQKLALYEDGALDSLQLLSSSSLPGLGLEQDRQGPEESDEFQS
# assayInfo: IRAK1 enzymatic assay
# measurementSetup: human recombinant His-TEV-IRAK1, ATP 1 μM, 3 hours at 30° C., FlashPlate

The examples below pair each entry with its known result.
Cn1cc(-c2cccc(-c3ncc(-c4cnn([C@H]5CCC[C@H](N6CCOCC6)C5)c4)cn3)c2)cn1 (relative stereo) [Compound 5] :: 100 to 1000 nM
C=CC(=O)NCCn1cc(-c2cnc(-c3cccc(-c4cnn(C)c4)c3)nc2)cn1 [Compound 13] :: 100 to 1000 nM
C=CC(=O)N1CCC(n2cc(-c3cnc(-c4cccc(-c5cnn(C)c5)c4)nc3)cn2)CC1 [Compound 10] :: 100 to 1000 nM
CN1CCCC(n2cc(-c3cnc(-c4cccc(-c5cnn(C)c5)c4)nc3)cn2)CC1=O (stereo not drawn) [Compound 24] :: 100 to 1000 nM
C=CC(=O)N[C@H]1CCC[C@H](n2cc(-c3cnc(-c4cccc(-c5cnn(C)c5)c4)nc3)cn2)C1 [Compound 38] :: 100 to 1000 nM
Cn1cc(-c2cccc(-c3ncc(-c4cnn([C@H]5C[C@@H]6CC[C@@H](N6)C5F)c4)cn3)c2)cn1 (stereo partly drawn) [Compound 19] :: < 100 nM

Sample Cn1cc(-c2cccc(-c3ncc(-c4cnn([C@H]5CC[C@]6(CCC(=O)N6CCO)CC5)c4)cn3)c2)cn1 [Compound 31] ; IC50 observed: 100 to 1000 nM

Measured IC50, COCC1CNCCC1n1cc(-c2cnc(-c3cccc(-c4cnn(C)c4)c3)nc2)cn1 (stereo not drawn) [Compound 29] : 1000 to 20000 nM

Recorded result, C=CS(=O)(=O)NCCn1cc(-c2cnc(-c3cccc(-c4cnn(C)c4)c3)nc2)cn1 [Compound 16] , IC50: 100 to 1000 nM

----------
# Tested on: TLR7 induced IL-6 secretion in human PBMC's
# assayInfo: TLR7 induced IL-6 in human PBMC's
# Type: cell-based
# measurementSetup: Homo sapiens, PBMC, read-out: TLR7 induced IL-6 secretion in hPBMC's (IC50)
pIC50: −log10 of the molar value.
propertyLabel: pIC50

Quick note, pIC50 for Cn1cc(-c2cccc(-c3ncc(-c4cnn(C5CCCC(C(=O)O)C5)c4)cn3)c2)cn1 (mixture of isomers) landed at 4.70 to 6.00

----------
# targetOrTestSystem: IRAK4 (His-TEV-IRAK4) (Homo sapiens, UniProt Q9NWZ3)
# Construct: His (N); TEV cleavage site (N)
# Sequence (Q9NWZ3 1-460): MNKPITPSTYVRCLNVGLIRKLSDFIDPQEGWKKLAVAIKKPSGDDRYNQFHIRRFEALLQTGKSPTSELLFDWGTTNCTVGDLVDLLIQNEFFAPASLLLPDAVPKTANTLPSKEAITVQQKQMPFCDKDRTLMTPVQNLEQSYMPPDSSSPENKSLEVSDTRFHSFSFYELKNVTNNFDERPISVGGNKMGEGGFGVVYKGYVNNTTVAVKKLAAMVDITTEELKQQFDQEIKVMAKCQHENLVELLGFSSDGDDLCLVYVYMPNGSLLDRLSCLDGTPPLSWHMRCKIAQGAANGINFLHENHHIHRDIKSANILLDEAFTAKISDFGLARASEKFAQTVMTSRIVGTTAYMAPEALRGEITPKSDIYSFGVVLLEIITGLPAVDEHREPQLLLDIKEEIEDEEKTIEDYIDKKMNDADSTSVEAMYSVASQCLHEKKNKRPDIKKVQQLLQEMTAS
# assayInfo: IRAK4 enzymatic assay
# measurementSetup: human recombinant His-TEV-IRAK4, ATP 2 μM, STK1-biotin peptide 300 nM, 3 hours at 30° C., FlashPlate
pIC50: −log10 of the molar value.
propertyLabel: pIC50

Example compounds with recorded pIC50:
Cn1cc(-c2cccc(-c3ncc(-c4cnn(C5CCCC(N6CCCC(F)(F)C6)C5)c4)cn3)c2)cn1 (centres unmarked) :: > 7.00
Cn1cc(-c2cccc(-c3ncc(-c4cnn(C5CCNCC5CO)c4)cn3)c2)cn1 (mixture of isomers) :: 6.00 to 7.00
C=CC(=O)NCCn1cc(-c2cnc(-c3cccc(-c4cnn(C)c4)c3)nc2)cn1 :: 6.00 to 7.00

The compound listed as Cn1cc(-c2cccc(-c3ncc(-c4cnn(C5CCN(C(=O)/C(C#N)=C\C6CC6)CC5)c4)cn3)c2)cn1 has a reported pIC50 of > 7.00

pIC50 reading for Cn1ccc(-c2cccc(-c3ncc(-c4cnn([C@H]5CC[C@]6(CCC(=O)N6C)CC5)c4)cn3)c2)n1 : > 7.00

Record C=CS(=O)(=O)N[C@H]1CCC[C@H](n2cc(-c3cnc(-c4cccc(-c5cnn(C)c5)c4)nc3)cn2)C1 (relative stereo) , field pIC50: > 7.00

Value of pIC50 reported for the compound Cn1cc(-c2cccc(-c3ncc(-c4cnn(C5CCCC(NC(=O)OC(C)(C)C)C5)c4)cn3)c2)cn1 (centres unmarked) is > 7.00

Noted for Cn1cc(-c2cccc(-c3ncc(-c4cnn(CCNC(=O)OC(C)(C)C)c4)cn3)c2)cn1 : its pIC50 reads 6.00 to 7.00

Data point: O[C@H]1CC[C@H](n2cc(-c3cnc(-c4cccc(-c5cnn(CCN6CCOCC6)c5)c4)nc3)cn2)CC1 ; pIC50 = 6.00 to 7.00

The recorded pIC50 for C=CC(=O)NC1CCCC(n2cc(-c3cnc(-c4cccc(-c5cnn(C)c5)c4)nc3)cn2)C1 (centres unmarked) is > 7.00

The compound identified as C=CS(=O)(=O)N1CCC(n2cc(-c3cnc(-c4cccc(-c5cnn(C)c5)c4)nc3)cn2)CC1 registered its pIC50 at > 7.00

// sample C=CC(=O)N[C@@H]1CCC[C@H](n2cc(-c3cnc(-c4cccc(-c5cnn(C)c5)c4)nc3)cn2)C1 (relative stereo) , its pIC50 was > 7.00

# compound CN1[C@H]2CC[C@@H]1C(F)[C@@H](n1cc(-c3cnc(-c4cccc(-c5cnn(C)c5)c4)nc3)cn1)C2 (some centres unmarked) ; its pIC50 = 6.00 to 7.00

// field: pIC50; key: Cn1cc(-c2cccc(-c3ncc(-c4cnn(C5CCCNC(=O)C5)c4)cn3)c2)cn1 (centres unmarked) ; value = > 7.00
